// pest or weed control at 140 g/ha lookup, one value per entry
tested on: test plant species; experiment: Post-emergent herbicidal activity test (greenhouse, foliar spray, visual growth reduction); format: in vivo; conditions: post-emergence, 336 h, AVEFA: wild oat (Avena fatua), 140 g ai/ha, 14 days after application, read-out: Visual Growth Reduction (%) 14 Days After Application, AVEFA

Please review the entries below; each comes with its answer.
INSERT INTO assay_data (entry_smiles, study_system, measured_attribute, observed_result) VALUES
  ('COC(=O)c1nc(-c2ccc(C(F)(F)F)cc2Cl)c(F)c(OC)c1Cl', 'test plant species', 'pest or weed control at 140 g/ha', '0 to 29%'),
  ('COC(=O)c1nc(-c2ccc(C(F)(F)F)nc2)c(O)cc1Cl', 'test plant species', 'pest or weed control at 140 g/ha', '0 to 29%'),
  ('COC(=O)c1nc(-c2ccc(C(F)(F)F)cc2Cl)ccc1F', 'test plant species', 'pest or weed control at 140 g/ha', '45 to 59%');

Now examine the next entry.
Any idea what pest or weed control at 140 g/ha was measured for COC(=O)c1nc(-c2ccc(C#N)cc2Cl)c(F)cc1Cl ?
0 to 29%

Where these numbers come from: patent US20230017045A1
